Target: Recombinant human Src (Homo sapiens, UniProt P12931)
Construct: made in house; host or cells: baculovirus-insect cell system
Sequence (P12931 whole entry): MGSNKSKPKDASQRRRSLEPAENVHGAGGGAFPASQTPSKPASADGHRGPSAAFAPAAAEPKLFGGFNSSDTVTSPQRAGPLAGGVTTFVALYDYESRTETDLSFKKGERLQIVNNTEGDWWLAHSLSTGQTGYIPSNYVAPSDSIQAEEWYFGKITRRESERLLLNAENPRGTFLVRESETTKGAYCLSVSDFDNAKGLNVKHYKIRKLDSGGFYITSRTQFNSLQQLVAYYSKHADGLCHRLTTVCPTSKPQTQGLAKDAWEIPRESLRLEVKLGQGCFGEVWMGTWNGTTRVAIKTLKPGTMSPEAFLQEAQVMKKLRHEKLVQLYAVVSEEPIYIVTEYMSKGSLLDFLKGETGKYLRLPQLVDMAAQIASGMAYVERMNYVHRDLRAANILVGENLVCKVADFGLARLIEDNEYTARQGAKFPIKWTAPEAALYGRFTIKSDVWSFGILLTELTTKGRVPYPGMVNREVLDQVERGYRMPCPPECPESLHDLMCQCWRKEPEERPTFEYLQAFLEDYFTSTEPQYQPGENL
Experiment: Src tyrosine kinase activity, poly E4Y / 32P-ATP phosphorylation assay
Assay type: biochemical
Conditions: compound at 15 μg/mL; read-out: % Inhibition at 15 μg/mL Src %
MEASURE NAME: inhibition at 15 µg/mL

Request: I am curious: what inhibition at 15 µg/mL value has been reported for COc1ccc(Oc2ccc(N)c(NS(=O)(=O)c3ccc(C)cc3)c2)cc1 [Compound 71a] ?
Response: 13%

Request: Next molecule up: COc1ccc(Oc2ccc(NC(=O)c3ccc(C(F)(F)F)nc3)c(NS(=O)(=O)c3ccc(C)cc3)c2)cc1 [Compound 71c]
Response: 5%

Request: Next molecule up: COc1ccc(Oc2ccc(NS(=O)(=O)c3ccc(C)cc3)c(NCc3ccc(C)cc3)c2)cc1 [Compound 71hh]
Response: 23%

Request: Next molecule up: COc1ccc(Oc2ccc(NS(=O)(=O)c3ccc(C)cc3)c(NC(=O)c3cnc(C)cn3)c2)cc1 [Compound 71h]
Response: 0%

Request: Next molecule up: Cc1ccc(C(=O)Nc2cc(NCc3cccc4ccccc34)c([N+](=O)[O-])cc2NC(=O)c2ccc(C)cc2)cc1 [Compound 71bb]
Response: 22%

Request: Next molecule up: COc1ccc(Oc2ccc(NC(=O)c3ccc(C#N)nc3)c(NS(=O)(=O)c3ccc(C)cc3)c2)cc1 [Compound 71b]
Response: 0%

Request: Next molecule up: COc1ccc(Oc2ccc(N)c(CNS(=O)(=O)c3ccc(C)cc3)c2)cc1 [Compound 71i]
Response: 13%
